Biological target: KATP channels (Homo sapiens)
Construct: TE671 human medulloblastoma cells were obtained from ATCC
Sequence (O60706 1-1549 isoform O60706-2): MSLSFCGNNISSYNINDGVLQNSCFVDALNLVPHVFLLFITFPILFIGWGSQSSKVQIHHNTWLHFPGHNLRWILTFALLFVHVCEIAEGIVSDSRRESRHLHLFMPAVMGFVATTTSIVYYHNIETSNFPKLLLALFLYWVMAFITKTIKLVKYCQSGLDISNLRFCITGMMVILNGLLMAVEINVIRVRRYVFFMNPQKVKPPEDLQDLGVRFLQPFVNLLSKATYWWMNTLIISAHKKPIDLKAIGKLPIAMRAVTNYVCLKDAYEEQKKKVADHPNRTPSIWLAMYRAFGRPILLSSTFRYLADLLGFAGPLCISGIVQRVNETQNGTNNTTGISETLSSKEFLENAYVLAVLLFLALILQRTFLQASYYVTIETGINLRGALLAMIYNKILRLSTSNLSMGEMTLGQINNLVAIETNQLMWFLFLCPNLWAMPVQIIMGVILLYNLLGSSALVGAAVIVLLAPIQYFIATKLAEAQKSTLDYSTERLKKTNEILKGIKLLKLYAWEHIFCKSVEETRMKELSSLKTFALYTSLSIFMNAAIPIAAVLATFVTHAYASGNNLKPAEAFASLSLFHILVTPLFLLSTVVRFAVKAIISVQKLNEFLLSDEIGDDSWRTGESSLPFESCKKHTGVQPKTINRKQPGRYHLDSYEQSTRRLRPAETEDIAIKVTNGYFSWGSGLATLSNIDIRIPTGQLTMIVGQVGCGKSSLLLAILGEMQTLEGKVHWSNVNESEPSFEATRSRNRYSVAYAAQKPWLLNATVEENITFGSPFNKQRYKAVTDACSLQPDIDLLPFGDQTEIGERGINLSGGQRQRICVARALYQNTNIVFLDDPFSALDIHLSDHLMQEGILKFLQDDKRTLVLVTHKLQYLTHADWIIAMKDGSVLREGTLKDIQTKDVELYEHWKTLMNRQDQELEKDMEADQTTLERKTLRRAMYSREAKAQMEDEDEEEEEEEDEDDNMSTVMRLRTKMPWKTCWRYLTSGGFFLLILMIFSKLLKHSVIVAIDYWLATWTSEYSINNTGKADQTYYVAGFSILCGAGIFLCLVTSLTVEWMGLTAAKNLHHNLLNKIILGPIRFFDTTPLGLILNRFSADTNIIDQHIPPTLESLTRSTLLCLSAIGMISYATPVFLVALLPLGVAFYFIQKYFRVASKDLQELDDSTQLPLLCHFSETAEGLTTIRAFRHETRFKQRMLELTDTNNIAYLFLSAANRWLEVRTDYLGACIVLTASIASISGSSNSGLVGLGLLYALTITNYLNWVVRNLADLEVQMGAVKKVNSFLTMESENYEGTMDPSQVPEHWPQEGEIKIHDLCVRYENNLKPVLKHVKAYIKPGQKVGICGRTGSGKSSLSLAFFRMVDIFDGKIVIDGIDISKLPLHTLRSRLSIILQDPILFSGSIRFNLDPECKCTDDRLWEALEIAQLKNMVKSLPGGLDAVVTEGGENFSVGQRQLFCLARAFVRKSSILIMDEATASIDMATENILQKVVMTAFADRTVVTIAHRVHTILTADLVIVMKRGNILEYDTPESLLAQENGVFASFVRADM
Sequence (Q14654 whole entry partner): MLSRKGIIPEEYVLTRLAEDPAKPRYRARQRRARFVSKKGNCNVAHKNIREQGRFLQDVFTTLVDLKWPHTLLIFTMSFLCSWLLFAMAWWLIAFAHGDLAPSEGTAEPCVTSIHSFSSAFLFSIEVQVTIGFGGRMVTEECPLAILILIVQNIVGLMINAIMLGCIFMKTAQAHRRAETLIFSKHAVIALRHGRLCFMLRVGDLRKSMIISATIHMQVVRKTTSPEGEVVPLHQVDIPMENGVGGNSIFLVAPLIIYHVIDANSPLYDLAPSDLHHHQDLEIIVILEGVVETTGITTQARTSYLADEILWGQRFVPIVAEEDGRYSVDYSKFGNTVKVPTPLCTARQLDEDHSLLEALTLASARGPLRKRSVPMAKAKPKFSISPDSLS
Test: Potassium Channel Assay (FLIPR membrane potential, KATP channel opening)
Settings: TE671 human medulloblastoma cells, Membrane Potential Assay Dye, room temperature
Method: TE671 human medulloblastoma cells were obtained from ATCC and grown in Dulbecco's modified Eagle's medium (DMEM) supplemented with 10% fetal bovine serum, 100 U/ml penicillin and 100 U/ml streptomycine. […] The effect of test compounds on KATP channels were evaluated on a fluorometric imaging plate reader (FLIPR, Molecular Devices) at room temperature. […] Hyperpolarization resulting from KATP channel opening was observed as a decrease in fluorescence intensity.
METRIC: pEC50
Give bare numbers, as −log10 of the molar value.

[[record]]
compound = "CC(C)(C)c1ccc(C(O)c2cnccc2-c2cccc(C#N)c2)cc1 (centres unmarked)"
system_name = "KATP channels (Homo sapiens)"
metric = "pEC50"
assay_result = 4.97

[[record]]
compound = "N#Cc1cccc(-c2ccncc2C(O)c2ccc(F)c(F)c2)c1 (centres unmarked)"
system_name = "KATP channels (Homo sapiens)"
metric = "pEC50"
assay_result = 4.94

[[record]]
compound = "N#Cc1cccc(-c2ccncc2C(O)c2ccc(Cl)c(Cl)c2)c1 (centres unmarked)"
system_name = "KATP channels (Homo sapiens)"
metric = "pEC50"
assay_result = 4.84

[[record]]
compound = "N#Cc1cccc(-c2ccncc2C(O)c2cc(Cl)cc(Cl)c2)c1 (centres unmarked)"
system_name = "KATP channels (Homo sapiens)"
metric = "pEC50"
assay_result = 5.01


# next compound below
Using the record for N#Cc1cccc(-c2ccncc2C(O)c2ccc(Cl)cc2)c1 (centres unmarked) , state its measured pEC50.
4.99

Data provenance is patent US7790895B2.
